# System: SF-295 CNS
# METHOD_SUMMARY: NCI-60 one-dose screen, 48 h (100 = growth as untreated, 0 = no growth, -100 = all killed)
# ASSAY_CONDITIONS: 10 µM unless noted
Compounds without any hit were thinned out: in the full panel of roughly 83,000, 20% have a hit. The source made the active and inactive calls. How the source made its calls: active means growth percent below 10; inactive means the rest.
REPORTED_ENDPOINT: growth

Examples with their reported growth follow.
{"columns": ["COMPOUND", "growth"],
 "data": [
  ["CCOC(=O)c1c(C)[nH]c(C(=O)CCC(=O)OC)c1C", "91.8% (inactive)"],
  ["C=C1C(=O)O[C@H]2[C@H]1CC/C(Cn1cc(CNCCc3c[nH]c4ccc(Cl)cc34)nn1)=C\\CC[C@@]1(C)O[C@@H]21", "95.4% (inactive)"],
  ["NC(=O)CC1(O)C=C(Br)C(=O)C(Br)=C1", "115% (inactive)"],
  ["COC(=O)[C@]12CC[C@@H](C)[C@H](C)[C@@H]1C1=CC[C@@H]3[C@@]4(C)C(C=O)=C[C@@](C)(CO)C4=CC[C@@]3(C)[C@]1(C)CC2", "24.9% (inactive)"],
  ["Nc1c(C(=O)c2ccc(Cl)s2)sc2nc3c(cc12)CCCC3", "102% (inactive)"]
]}

[Q] Please look up its growth: "CCCCCCCCCCCCCCCCCC1=NCCN1C(=O)OCCO"
[A] 23.3% (inactive)

[Q] Look up growth: "Cc1cc(N(CCCNc2ccnc3cc(Cl)ccc23)Cc2ccccn2)nc(N2CCCC2)n1"
[A] 75.5% (inactive)

[Q] Fill blank: measured growth of the compound "Oc1ccccc1-c1nc2ccccn2c1NCCN1CCOCC1" is ____.
[A] 98% (inactive)

[Q] Entry O=C(/C=C/C12c3ccccc3C(c3ccccc31)C1C(=O)N(c3ccccc3)C(=O)C12)c1ccccc1 (stereo not given) : reported growth = ?
[A] -3.2% (active)

[Q] Can you share its growth? I mean this compound: "Cn1c(NCCc2ccc(O)c(O)c2)nc2c1c(=O)n(Cc1ccc(Cl)cc1)c(=O)n2C"
[A] 103% (inactive)

====

# System: SW-620 colon
# METHOD_SUMMARY: NCI-60 one-dose screen, 48 h
# ASSAY_CONDITIONS: 10 µM unless noted
The panel holds about 83,000 compounds, 20% with a hit somewhere; the sample as a whole holds those more often. Activity calls are given as the source filed them. The calls were made as follows: active = growth percent below 10; inactive = the rest.
Would you mind answering with one of these outcomes? TRUE (active), FALSE (inactive)

Example entries begin here.
{"columns": ["COMPOUND", "ASSAY_TARGET", "CLASS_LABEL"],
 "data": [
  ["CCNCCNc1cc(-c2ccc(C(F)(F)F)cc2)c(C#N)c2nc3cc(Cl)c(Cl)cc3n12", "SW-620 colon", "TRUE"],
  ["COc1ccc(-c2nc3sccn3c2/C=C/C(=O)c2c[nH]c3ccccc23)cc1", "SW-620 colon", "FALSE"],
  ["CCOc1cccnc1/C=N/NC(N)=S", "SW-620 colon", "FALSE"]
]}

[Q] In this assay, the call recorded for "C=C(C)[C@@H]1CC[C@]2(C(=O)NCC(=O)O)CC[C@]3(C)[C@H](CC[C@@H]4[C@@]5(C)Cc6c([nH]c7ccccc67)C(C)(C)[C@@H]5CC[C@]43C)[C@@H]12" was what?
[A] FALSE

Numbers sourced from PubChem BioAssay (NCI).
